# Tested on: Mus musculus
# assay remarks: Toxicity in CD1 mouse assessed as survival at 300 mg/kg, ip after 3 days
# Assay type: organism-based
# Parameters: dose 300 mg/kg, route intraperitoneal
# condition summary: in vivo, 72 h
outcome measure: Activity

Past entries and their recorded results:
compound	result
CCCCCCOC(=O)N/N=C/C=C/c1ccc([N+](=O)[O-])o1	Non-toxic
CC1CS(=O)(=O)CCN1/N=C/c1ccc([N+](=O)[O-])o1 (stereo not drawn)	Non-toxic
CCCCNC(=O)N/N=C/c1ccc([N+](=O)[O-])o1	Toxic
CCCCOC(=O)N/N=C/C=C/c1ccc([N+](=O)[O-])o1	Non-toxic
CCCCCCNC(=O)/C=C/c1ccc([N+](=O)[O-])o1	Non-toxic

query: Which Activity is listed for `CCCCCCNC(=O)N/N=C/C=C/c1ccc([N+](=O)[O-])o1` ?
result: Non-toxic

query: Activity for `COCCNC(=O)N/N=C/c1ccc([N+](=O)[O-])o1` ?
result: Toxic

query: Give the measured Activity of `CCCCCCCOC(=O)N/N=C/C=C/c1ccc([N+](=O)[O-])o1` .
result: Non-toxic
